- Tested target: UniProt O13833
- Sequence (O13833 1-405): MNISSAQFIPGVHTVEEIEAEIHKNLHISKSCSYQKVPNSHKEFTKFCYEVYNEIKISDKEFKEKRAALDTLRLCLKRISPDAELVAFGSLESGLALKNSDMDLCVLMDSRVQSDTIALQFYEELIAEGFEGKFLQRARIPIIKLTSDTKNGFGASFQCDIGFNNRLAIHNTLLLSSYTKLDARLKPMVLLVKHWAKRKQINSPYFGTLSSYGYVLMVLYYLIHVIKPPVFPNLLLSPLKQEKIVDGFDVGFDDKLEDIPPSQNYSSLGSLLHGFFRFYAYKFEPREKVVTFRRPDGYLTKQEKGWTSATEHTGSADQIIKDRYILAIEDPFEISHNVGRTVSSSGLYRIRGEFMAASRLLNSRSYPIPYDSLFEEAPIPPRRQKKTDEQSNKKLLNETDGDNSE
Test readout: Kd (nM)
Lab book: enter the figure in nM, no units written.

Data request, read-out Kd, for O=c1[nH]c(=O)n([C@@H]2O[C@H](COP(=O)(O)OP(=O)(O)OP(=O)(O)O)[C@@H](O)[C@H]2O)cc1-c1cc2ccccc2o1 [compound 2, BFUTP]
180
